From: patent US6914045B2

Test system: Staphylococcus sp.
Assay: in vitro antibacterial evaluation, MIC by broth dilution
Type: cell-based
Settings: strain GC 4549; broth dilution, 18 hours at 35° C.
reported.endpoint: MIC Coagulase Negative Staphylococcus (GC 4549)

molecule	result
CC(c1ccccc1)C1NC(=O)CNC(=O)C(CO)NC(=O)C(C(O)C2CNC(=N)N2C2OC(CO)C(O)C(O)C2O)NC(=O)C(C(O)C2CNC(=N)N2)NC(=O)C(Cc2ccc3oc(-c4ccc(C(=O)O)cc4)nc3c2)NC1=O (stereo not drawn)	>128 µg/mL
CC(c1ccccc1)C1NC(=O)CNC(=O)C(CO)NC(=O)C(C(O)C2CN(Cc3ccc(C(=O)O)cc3)C(=N)N2C2OC(CO)C(O)C(O)C2O)NC(=O)C(C(O)C2CNC(=N)N2)NC(=O)C(Cc2ccc(OC3OC(CO)C(OC4OC(CO)C(O)C(O)C4O)C(O)C3O)cc2)NC1=O (stereo not drawn)	>128 µg/mL
CC(C)=CCCC(C)=CCCC(C)=CCOc1cccc(C2OCC3OC(OC4C(CO)OC(Oc5ccc(CC6NC(=O)C(C(C)c7ccccc7)NC(=O)CNC(=O)C(CO)NC(=O)C(C(O)C7CNC(=N)N7C7OC(CO)C(O)C(O)C7O)NC(=O)C(C(O)C7CNC(=N)N7)NC6=O)cc5)C(O)C4O)C(O)C(O)C3O2)c1 (stereo not drawn)	>64 µg/mL
CC(c1ccccc1)C1NC(=O)CNC(=O)C(CO)NC(=O)C(C(O)C2CNC(=N)N2C2OC(CO)C(O)C(O)C2O)NC(=O)C(C(O)C2CNC(=N)N2)NC(=O)C(Cc2ccc(O)c(N(C)C)c2)NC1=O (stereo not drawn)	>128 µg/mL
CC(c1ccccc1)C1NC(=O)CNC(=O)C(CO)NC(=O)C(C(O)C2CN(CCCCCCCCCCC(=O)O)C(=N)N2C2OC(CO)C(O)C(O)C2O)NC(=O)C(C(O)C2CNC(=N)N2)NC(=O)C(Cc2ccc(OC3OC(CO)C(OC4OC(CO)C(O)C(O)C4O)C(O)C3O)cc2)NC1=O (stereo not drawn)	>128 µg/mL
CC(c1ccccc1)C1NC(=O)CNC(=O)C(CO)NC(=O)C(C(O)C2CN(Cc3ccc4ccccc4c3)C(=N)N2C2OC(CO)C(O)C(O)C2O)NC(=O)C(C(O)C2CNC(=N)N2)NC(=O)C(Cc2ccc(OC3OC(CO)C(OC4OC(CO)C(O)C(O)C4O)C(O)C3O)cc2)NC1=O (stereo not drawn)	>128 µg/mL
